- measurement description: self-splicing fitness, log relative to wild type (ln ratio); higher = more splicing; Tetrahymena group I intron in knt gene, E. coli kanamycin selection, DiMSum; sequences stand for … in CUCUCU…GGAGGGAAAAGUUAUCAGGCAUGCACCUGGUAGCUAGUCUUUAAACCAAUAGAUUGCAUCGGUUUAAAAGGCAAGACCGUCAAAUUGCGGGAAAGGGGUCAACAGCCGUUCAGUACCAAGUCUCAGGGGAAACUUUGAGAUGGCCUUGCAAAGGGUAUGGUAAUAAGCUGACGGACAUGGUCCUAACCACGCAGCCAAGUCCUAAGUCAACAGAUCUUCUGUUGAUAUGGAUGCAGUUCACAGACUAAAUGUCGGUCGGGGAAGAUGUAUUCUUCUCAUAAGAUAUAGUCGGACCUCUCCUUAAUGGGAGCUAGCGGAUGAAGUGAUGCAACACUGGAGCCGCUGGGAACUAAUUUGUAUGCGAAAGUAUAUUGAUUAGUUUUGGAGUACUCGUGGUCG;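 also: selection with 25 µg/mL kanamycin versus none on LB agar overnight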
- experimental conditions: 30 °C
Outcome label depends on self-splicing fitness (ln) relative to -3: at/above gives 1, below gives 0.

construct_sequence=AGCGAGCAAUAUUACGACCA class_name=1
construct_sequence=GACCAGCAAUAUUACGAGUG class_name=1
construct_sequence=CAACAGCAAUAUUACGUAGC class_name=0
construct_sequence=UGACAGCAAUAUUACGCAGC class_name=0
construct_sequence=CCUGAGCAAUAUUACGCCUU class_name=1
construct_sequence=UGCAAGCAAUAUUACGUUAU class_name=0

Task item: Could you please find out whether CCUCAGCAAUAUUACGUGCG has self-splicing fitness (ln) that meets -3 or exceeds it?
Reply: 1

Task item: Decide: is the reported value of self-splicing fitness (ln) for UUAUAGCAAUAUUACGCGGU equal to or greater than -3?
Reply: 0

Task item: Dear colleague, could you confirm whether CGAGAGCAAUAUUACGGAGC has self-splicing fitness (ln) at or above -3?
Reply: 1

Task item: Confirm if self-splicing fitness (ln) reported for the sequence GGGUAGCAAUAUUACGGGCA is -3 or above.
Reply: 1

Task item: Could you tell me if the measured self-splicing fitness (ln) of CUUAAGCAAUAUUACGCGCG reaches -3 or more?
Reply: 1
